- Run description: protein stability index of a GFP-peptide fusion (GPS, HEK-293T) (PSI 1-6); higher = more stable;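 further: 24-mer peptide tiles fused after GFP, lentivirally expressed, FACS-sorted into six equal bins by GFP/DsRed ratio, decoded by Illumina sequencing, PSI is the read-weighted mean bin number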
- Condition details: treatment: MLN4924 1 uM, 8 h; c terminus: a fixed tail appended
Catalogue of protein stability index values
Readout kind: protein stability index

1) SSDESPGSKCSPEDLATAYNNRGQ [TTC32]
5.44
2) ALEGSALANGRALSAGSPPVPPGW [DLX1]
3.86
3) LSSSCCHTVPDFHLSSPAKNFFKK [PLK2]
3.25
4) RVLFIKDVIGDEICCWSFYGQGRK [KCTD10]
2.38
5) IGFGVYFEWTDSPNTAVSVHVSES [ACBD3]
2.95
6) RFQLLYVACGMVHLLIPELGACVA [DNAAF3]
3.39
7) FERLCLTWMFFFMMCVAERTYKQR [PHTF1]
3.3
8) IYGRSQNPVQPIGPQTPKACDSKL [MMP1]
4.08
9) EDTQRHETYHQQGQCQVLVQRSPW [TCAP]
3.79
10) CSSSDDDTDVDMEGLRRRRGREAG [PBXIP1]
5.26
11) LLFKYQMKEPITKAEILESVIKNY [MAGEA10]
2.74
12) LHLLYLLEKVECTPSQEHLKHQTV [FEM1A]
2.23
13) PPPPRSRGPPRGLRGGRGGSGGTR [RBMX]
4.96
14) TVNVQRTGQPLPQSIQQAMRYLRN [DLC1]
3.33
15) GRVLLANSTQADEGKTKKGVLEAP [FBXO34]
4.9
16) SFRQGMHLTRHQRTHTGEKPYKCT [ZNF263]
3.7
17) GALPVGSNLTSNLASLVSQGMIQL [RETREG3]
2.46
18) SVGHNNLIPLANTGIVNHTHSRMG [CARM1]
3.66
19) HTSTARLLLHRGAGKEAMTSDGYT [RIPK4]
3.75
20) YGMQTQNYPKGGLLDSMCPASTPS [ETS2]
3.64
21) LNQQVVSSSEQLQCCQTEIIELRR [KRT36]
4.04
22) ILVMKHNYSQDAADACDIDEIEEV [NETO1]
4.18
23) APKAGLEEAPAVTAGLKIFEPPAP [TNFSF13B]
4.68
24) AAAEVGGGVGGSSRARSASSPRGM [ANKRD17]
5
25) GKTFKQSSNLGQHQRIHTGEKPFE [ZNF232]
4.48
26) PLSWAPCGPIAGSRQALSFEVPPC
3.07
27) PYFKSNDVVCKNQDELRNRSVKVI [FAN1]
4.01
